Reference source: ChEMBL document CHEMBL1201862

Test system: ACHN
Assay Summary: NCI tumour cell line growth inhibition, 48 h
The source made the active and inactive calls. Rule as the data show it: active = GI50 up to about 1.1 µM and inactive = higher.
Respond only with the outcome that fits, drawn from t (active), f (inactive)

Worked cases, answers included:
Nc1c(C(=O)O)nnc2cc(Cl)ccc12 | f
N#Cc1c(SCc2ccccc2)nc(-c2ccccc2)[nH]c1=S | f
CCc1ccccc1NC(=O)C1=C(C)NC(C)=C(C(=O)Nc2ccccc2CC)C1c1cccc([N+](=O)[O-])c1 | f
O=C(O)CN1C(=O)C(Cc2ccc(O)cc2)N=C(c2cccc(O)c2)c2ccccc21 (configuration not stated) | f
O=C(/C=C(\C(=O)c1cccs1)c1cccs1)c1ccc(C(=O)/C=C(\C(=O)c2cccs2)c2cccs2)cc1 | f

Q: Call for entry O=C(Nc1cccc(O)c1)C(=O)C(C(=O)c1ccc(Cl)c(Cl)c1)C1OC(=O)c2ccccc21 (configuration not stated) :
Ans: f

Q: Call for entry N#Cc1cc(Sc2ccc(N)c(C#N)c2)ccc1N :
Ans: f

Q: Call for entry COC(=O)[C@H]1ON2O[C@@H](O[C@H]3CCCC[C@@H]3C(C)(C)c3ccccc3)C[C@@H]3CC[C@H]1[C@@]32C :
Ans: f

---

The following molecules are listed with their measured GI50 values.
System: TK-10
Assay Summary: NCI tumour cell line growth inhibition, 48 h
The source made the active and inactive calls. No stated cut-off is given here; in the data, active = GI50 up to about 1.1 µM and inactive = higher.

Per the record, COc1cc(N(CCC#N)CCC#N)ccc1C(=N/NC(=O)c1cc(Br)ccc1O)/N=N/c1ccc(C)cc1 has GI50 of 23.9 µM (inactive)

Per the record, COc1cc2c(cc1OC)C(=O)N(c1ccc(OCCN3CCCC3)cc1)C2=O has GI50 of > 100 µM (inactive)

Per the record, COc1cc(CSc2ccc(O)cc2)cc(OC)c1OC has GI50 of 75.2 µM (inactive)

Per the record, COc1cc2c(c(OC3OC(CO)C(O)C(O)C3O)c1)C(=O)CC(c1ccc(O)cc1)O2 (configuration not stated) has GI50 of > 100 µM (inactive)

Per the record, COc1c(OC)c(N)c2cc(C)c(=O)c(C)cc2c1N has GI50 of > 100 µM (inactive)

Per the record, Cc1sc2nc3n(c(=O)c2c1C)N=CN(c1ccccc1)C3 has GI50 of > 100 µM (inactive)

Per the record, CC(=O)c1ccc(N2CCN(C3=CC(=O)c4c(O)ccc(O)c4C3=O)CC2)cc1 has GI50 of 61 µM (inactive)

Per the record, C=C1C(=O)O[C@@H]2[C@H]1CC[C@H](C)[C@]1(O)CCC(=O)[C@@]21C has GI50 of > 10 µM (inactive)

Per the record, COc1cc2c(cc1OC)C(C1(O)CCCCC1)NCC2 (configuration not stated) has GI50 of > 100 µM (inactive)

---

The following molecules are listed with their measured GI50 values.
Tested on: LOX IMVI
Assay Summary: NCI tumour cell line growth inhibition, 48 h
Calls of active or inactive are those of the source. No stated cut-off is given here; in the data, active = GI50 up to about 1.1 µM and inactive = higher.

Some molecules with recorded GI50:
C=CCn1c(-c2ccc(-c3cs/c(=N\N=O)n3CC=C)cc2)cs/c1=N\N=O | > 100 µM (inactive)
CSc1nc(N)c2c(-c3ccccc3)c3c(nc2n1)CCCC3 | > 100 µM (inactive)
CN1CCC(O)(OC(=O)C(c2ccccc2)C2(O)CCCC2)CC1 (stereo unspecified) | > 100 µM (inactive)
Cc1cc(Cl)ccc1OCC(=O)Nc1nc(N)nc(N)n1 | > 100 µM (inactive)
N#CC1=C(N)N(c2ccccc2)C(c2ccco2)C1(C#N)C#N (stereo unspecified) | 16.7 µM (inactive)

Per the record, Cn1nc2ccc3nccc(NCCNCCO)c3c2n1 has GI50 of 20.4 µM (inactive)

---

System: OVCAR-8
Assay Summary: NCI tumour cell line growth inhibition, 48 h
The source made the active and inactive calls. No stated cut-off is given here; in the data, active = GI50 up to about 1.1 µM and inactive = higher.
Respond only with the outcome that fits, drawn from yes = active, no = inactive

COc1c(OC2OC(CO)C(O)C(O)C2O)cc2c(c1OC)-c1ccc(OC)c(=O)cc1C(NC(C)=O)CC2 (stereo not given) | no
COc1ccc(NC(=O)C2C(=O)N(c3ccc(OC)cc3)C(=O)/C2=N/O)cc1 (stereo not given) | no
CCN(CC)CC(C)(C)C(=O)/C=C/c1ccc(/C=C/C(=O)C(C)(C)CN(CC)CC)cc1 | yes
Cn1c(=O)cc(NCCc2ccccc2)[nH]c1=O | no

Q: Call for entry COc1cc2c(/C=C3/C(=O)Nc4ccc(Cl)cc43)c(Cl)n(Cc3ccccc3)c2cc1C :
Ans: no

---

Tested on: MOLT-4
Assay Summary: NCI tumour cell line growth inhibition, 48 h
Active and inactive are the calls of the source. Cut-off read from the data, not from the text of the source: active = GI50 up to about 1.1 µM and inactive = higher.
Measure: GI50

Some molecules with recorded GI50:
COc1cccc(NC(=O)c2c(SC)c(C#N)c(=O)n(N)c2N)c1 | 41.8 µM (inactive)
O=[N+]([O-])C1CC/C(=N/O)c2nonc21 (stereo not given) | > 10 µM (inactive)
c1ccc(CN2CCc3[nH]c4ccccc4c3C2)cc1 | 22.2 µM (inactive)
O=C(Nc1cccc(O)c1)C(=O)C(C(=O)c1ccc(Cl)c(Cl)c1)C1OC(=O)c2ccccc21 (stereo not given) | 5.01 µM (inactive)

Next molecule, GI50 to be filled in.
Per the record, CC(C)NC(=O)OCc1c(COC(=O)NC(C)C)n(C)c2c1ccc1cc(Cl)c(Cl)cc12 has GI50 of 3.97 µM (inactive)

---

Test system: SR
Assay Summary: NCI tumour cell line growth inhibition, 48 h
Activity calls are given as the source filed them. Rule as the data show it: active = GI50 up to about 1.1 µM and inactive = higher.
Respond only with the outcome that fits, drawn from active, inactive

Cn1nc2ccc3nccc(NCCNCCO)c3c2n1 | inactive
COc1ccc(NC(=O)C2C(=O)N(c3ccc(OC)cc3)C(=O)/C2=N/O)cc1 (configuration not stated) | inactive

Q: Call for entry COc1c(OC)c(N)c2cc(C)c(=O)c(C)cc2c1N :
Ans: inactive

Q: Call for entry c1ccc2c(c1)N=C(c1cccc3ccccc13)CC(c1ccc3c(c1)OCO3)S2 (configuration not stated) :
Ans: inactive

Q: Call for entry CCOC(=O)C1=C(C)N(Cc2ccccc2)C2(O)C=CC(O)=C3C(=O)c4ccccc4C(=O)C312 (configuration not stated) :
Ans: inactive

Q: Call for entry O=C(O)C(Oc1nc(S)nc(S)n1)(c1ccc(Cl)cc1)c1ccc(Cl)cc1 :
Ans: inactive

Q: Call for entry CC(C)(C)OC(=O)NC(Cc1ccccc1)NC(=O)NC(=O)OCc1ccccc1 (configuration not stated) :
Ans: inactive

Q: Call for entry NC(CCSCCF)C(=O)O (configuration not stated) :
Ans: inactive

---

Test system: A549
Assay Summary: NCI tumour cell line growth inhibition, 48 h
Active and inactive are the calls of the source. No stated cut-off is given here; in the data, active = GI50 up to about 1.1 µM and inactive = higher.
Respond only with the outcome that fits, drawn from true (1) = active, false (0) = inactive

Worked cases, answers included:
Nc1nc2[nH]cc(CCc3ccc(C(=O)N[C@@H](CCC(=O)O)C(=O)O)cc3)c2c(=O)[nH]1 | false (0)
CSc1nc(N)c2c(-c3ccccc3)c3c(nc2n1)CCCC3 | false (0)
CC(=O)c1ccc(Nc2nc3ccccc3c3occc23)cc1 | false (0)
Cc1sc2nc3n(c(=O)c2c1C)N=CN(c1ccccc1)C3 | false (0)
C=C(c1ccccc1)c1cc2c(=O)[nH]ccc2n1C | false (0)
O=C1C=CC2(O[C@H](c3ccccc3)[C@@H](c3ccccc3)O2)C(SC(=O)c2ccccc2)C1 (some centres not stated) | false (0)
Oc1cccc2c1NC1=C(CCC/C1=C\c1ccccc1)C2 | false (0)
O=C(Nc1nnc(-c2ccccc2)o1)C(SC(=S)N1CCCC1)c1ccccc1 (configuration not stated) | false (0)

Q: Call for entry COc1ccc(C(C)NNC(=O)c2ccncc2)cc1OC (configuration not stated) :
Ans: false (0)

---

System: MDA-MB-435
Assay Summary: NCI tumour cell line growth inhibition, 48 h
Structures can show the parent of a compound that is named as a salt. Activity calls are given as the source filed them. No stated cut-off is given here; in the data, active = GI50 up to about 1.1 µM and inactive = higher.
Respond only with the outcome that fits, drawn from active, inactive

Worked cases, answers included:
CC(=O)NNC1=NN(C(C)=O)C2(S1)C(=O)Nc1ccccc12 (stereo not given) | inactive
O=C(Nc1nnc(-c2ccccc2)o1)C(SC(=S)N1CCCC1)c1ccccc1 (stereo not given) | inactive
CCN(CC)CC(C)(C)C(=O)/C=C/c1ccc(/C=C/C(=O)C(C)(C)CN(CC)CC)cc1 | active
C[C@]12CC[C@H]3[C@@H](CC=C4C[C@@H](O)CC[C@@]43C)[C@@H]1C/C(=C/c1ccccc1)[C@@H]2O | inactive
O=C1c2ccccc2N1C(=O)c1ccccc1[N+](=O)[O-] | inactive
O=C1OC(c2ccc(O)c(F)c2)(c2ccc(O)c(F)c2)c2cccc3cccc1c23 | inactive
NC(=O)Oc1ccccc1 [CARBAMIC ACID PHENYL ESTER] | inactive
CN[C@@H]1[C@H](O)[C@H](NC)[C@H]2O[C@@]3(O)C(=O)C[C@@H](C)O[C@H]3O[C@@H]2[C@H]1O [SPECTINOMYCIN SULFATE] | inactive
Cc1cc2cc3ccccc3cc2c(=O)[nH]1 | inactive

Okay, now this compound:
Q: Call for entry c1ccc2c(c1)nc1n2C2CCC(C2)N1 (stereo not given) :
Ans: inactive
